Origin of measurements: ChEMBL document CHEMBL1961873

# Subject of test: Calcium/calmodulin-dependent protein kinase type II subunit delta (Homo sapiens) (UniProt Q13557)
# Sequence (Q13557 whole entry): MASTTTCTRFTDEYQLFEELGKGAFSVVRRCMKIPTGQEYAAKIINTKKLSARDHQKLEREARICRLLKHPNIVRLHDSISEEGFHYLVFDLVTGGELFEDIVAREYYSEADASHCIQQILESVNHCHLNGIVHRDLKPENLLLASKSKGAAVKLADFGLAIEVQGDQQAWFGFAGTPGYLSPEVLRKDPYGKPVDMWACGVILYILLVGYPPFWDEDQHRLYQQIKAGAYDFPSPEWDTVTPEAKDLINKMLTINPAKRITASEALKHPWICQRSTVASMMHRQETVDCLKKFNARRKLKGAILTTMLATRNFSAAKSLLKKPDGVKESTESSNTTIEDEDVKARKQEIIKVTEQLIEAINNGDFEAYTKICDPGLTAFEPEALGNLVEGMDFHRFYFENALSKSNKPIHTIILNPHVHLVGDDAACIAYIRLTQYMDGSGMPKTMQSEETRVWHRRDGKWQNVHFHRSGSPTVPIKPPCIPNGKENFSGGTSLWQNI
# Measurement setup: at 0.1 µM

{"Smiles string": "NS(=O)(=O)c1ccc(N/N=C2\\C(=O)Nc3cccc(CCc4ccncc4)c32)cc1", "inhibition, %": -0.63}
{"Smiles string": "CCS(=O)(=O)c1ccc(OC)c(Nc2ncc(-c3cccc(C(C)=O)c3)o2)c1", "inhibition, %": 1.73}
{"Smiles string": "O=C(O[C@H]1CN[C@H](C#Cc2cc3ncnc(Nc4ccc(OCc5cccc(F)c5)c(Cl)c4)c3s2)C1)N1CCOCC1", "inhibition, %": 3.54}
{"Smiles string": "CCN1CCC(C(=O)Nc2n[nH]c3nnc(-c4cccc(F)c4F)cc23)CC1", "inhibition, %": -0.8}
{"Smiles string": "COc1ccccc1-c1cc(/C=C2\\C(=O)Nc3ncc(Br)cc32)cc(Br)c1O", "inhibition, %": 4.86}
{"Smiles string": "CNC(=O)c1cncc(/C=C/c2ccccc2C)c1", "inhibition, %": 2.3}
{"Smiles string": "COC(=O)Nc1nc2ccc(Oc3ccc(NC(=O)Nc4cc(C(F)(F)F)ccc4F)cc3)cc2s1", "inhibition, %": 0.25}
{"Smiles string": "COc1cc(Nc2ncc(-c3ccccc3)o2)cc(OC)c1", "inhibition, %": 3.94}
{"Smiles string": "Fc1ccc(Nc2nccc(-c3c(-c4ccc(C(F)(F)F)cc4)nn4ncccc34)n2)cc1F", "inhibition, %": 1.73}

###

Some molecules, each annotated with its measured inhibition.
# Subject of test: Serine/threonine-protein kinase Chk1 (Homo sapiens) (UniProt O14757)
# Sequence (O14757 whole entry): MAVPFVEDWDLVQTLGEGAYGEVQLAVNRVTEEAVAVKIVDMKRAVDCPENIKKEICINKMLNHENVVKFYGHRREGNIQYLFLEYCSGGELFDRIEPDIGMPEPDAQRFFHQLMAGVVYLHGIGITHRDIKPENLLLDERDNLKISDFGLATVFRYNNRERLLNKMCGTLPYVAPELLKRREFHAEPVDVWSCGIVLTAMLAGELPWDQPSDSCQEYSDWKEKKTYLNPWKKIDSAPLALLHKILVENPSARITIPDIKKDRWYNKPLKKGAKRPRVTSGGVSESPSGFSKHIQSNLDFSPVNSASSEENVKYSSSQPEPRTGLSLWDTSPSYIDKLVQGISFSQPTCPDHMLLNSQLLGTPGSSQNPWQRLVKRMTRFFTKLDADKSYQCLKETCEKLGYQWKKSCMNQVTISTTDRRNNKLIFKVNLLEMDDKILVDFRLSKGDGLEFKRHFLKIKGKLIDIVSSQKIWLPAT
# Measurement setup: at 1 µM

{"Smiles string": "COc1cc(Nc2ncc(-c3ccccc3)o2)cc(OC)c1", "Subject of test": "Serine/threonine-protein kinase Chk1 (Homo sapiens) (UniProt O14757)", "inhibition / %": 0.7}
{"Smiles string": "COc1cccc(-n2ncc3c(N/N=C/c4ccc(C(=O)NCCN(C)C)cc4)ncnc32)c1", "Subject of test": "Serine/threonine-protein kinase Chk1 (Homo sapiens) (UniProt O14757)", "inhibition / %": 5.69}
{"Smiles string": "COc1c(C(N)=O)cc(-c2ccc(Cl)cc2)cc1-c1ccc(S(N)(=O)=O)cc1", "Subject of test": "Serine/threonine-protein kinase Chk1 (Homo sapiens) (UniProt O14757)", "inhibition / %": 1.33}
{"Smiles string": "COc1cccc(Nc2nccc(-c3cnn4ncccc34)n2)c1", "Subject of test": "Serine/threonine-protein kinase Chk1 (Homo sapiens) (UniProt O14757)", "inhibition / %": 3.93}

###

Some compounds, each annotated with its measured inhibition.
# Subject of test: Misshapen-like kinase 1 (Homo sapiens) (UniProt Q8N4C8)
# Sequence (Q8N4C8 whole entry, looked up): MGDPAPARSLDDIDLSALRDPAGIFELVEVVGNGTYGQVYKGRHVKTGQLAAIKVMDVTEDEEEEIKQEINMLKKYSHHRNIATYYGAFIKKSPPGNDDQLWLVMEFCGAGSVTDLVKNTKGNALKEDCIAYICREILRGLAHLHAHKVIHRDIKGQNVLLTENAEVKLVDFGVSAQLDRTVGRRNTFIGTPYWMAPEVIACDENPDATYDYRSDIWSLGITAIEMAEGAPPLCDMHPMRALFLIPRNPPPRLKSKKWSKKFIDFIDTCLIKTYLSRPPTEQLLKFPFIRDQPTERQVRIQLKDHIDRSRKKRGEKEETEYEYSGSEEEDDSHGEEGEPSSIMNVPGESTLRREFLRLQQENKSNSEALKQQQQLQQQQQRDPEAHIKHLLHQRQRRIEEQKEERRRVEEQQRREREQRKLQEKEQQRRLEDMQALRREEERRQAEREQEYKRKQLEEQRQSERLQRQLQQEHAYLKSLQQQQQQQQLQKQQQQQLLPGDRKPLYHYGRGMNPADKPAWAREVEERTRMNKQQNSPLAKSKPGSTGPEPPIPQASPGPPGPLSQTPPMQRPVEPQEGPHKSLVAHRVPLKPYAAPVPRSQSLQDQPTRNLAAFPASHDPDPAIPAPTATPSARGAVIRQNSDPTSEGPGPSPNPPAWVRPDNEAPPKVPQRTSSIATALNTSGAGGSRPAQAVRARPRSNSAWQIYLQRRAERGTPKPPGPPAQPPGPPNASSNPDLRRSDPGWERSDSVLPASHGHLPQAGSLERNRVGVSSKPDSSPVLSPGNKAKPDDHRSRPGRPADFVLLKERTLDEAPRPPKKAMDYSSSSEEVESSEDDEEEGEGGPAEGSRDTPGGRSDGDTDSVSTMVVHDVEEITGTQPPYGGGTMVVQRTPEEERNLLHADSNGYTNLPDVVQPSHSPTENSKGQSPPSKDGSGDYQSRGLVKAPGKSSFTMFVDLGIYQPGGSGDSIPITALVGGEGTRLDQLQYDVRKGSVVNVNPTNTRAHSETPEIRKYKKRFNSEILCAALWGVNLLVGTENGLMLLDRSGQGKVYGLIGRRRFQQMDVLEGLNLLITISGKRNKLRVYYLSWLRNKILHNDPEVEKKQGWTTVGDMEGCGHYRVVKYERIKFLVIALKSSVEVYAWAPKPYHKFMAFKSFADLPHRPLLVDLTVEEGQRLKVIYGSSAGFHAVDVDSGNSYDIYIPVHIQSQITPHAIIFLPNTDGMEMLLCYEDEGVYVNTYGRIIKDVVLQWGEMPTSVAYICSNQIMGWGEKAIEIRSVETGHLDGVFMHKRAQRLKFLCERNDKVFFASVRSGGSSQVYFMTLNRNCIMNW
# Measurement setup: at 1 µM
# Description: GSK_PKIS: MINK mean inhibition at 1 uM [Nanosyn]

{"Smiles string": "CN1CCC(n2cnc(-c3ccc(F)cc3)c2-c2ccnc(NCCO)n2)CC1", "inhibition / %": 15.8}
{"Smiles string": "NS(=O)(=O)c1cccc(N/C=C2\\C(=O)Nc3ccccc32)c1", "inhibition / %": 70.2}
{"Smiles string": "NS(=O)(=O)c1ccc(N/N=C2\\C(=O)Nc3cccc(CCc4ccncc4)c32)cc1", "inhibition / %": 10.8}
{"Smiles string": "NC(=O)c1ccc2c(-c3ccnc(NCCCO)n3)c(-c3ccc(F)cc3)nn2c1", "inhibition / %": 35.5}
{"Smiles string": "O=C1Nc2ccccc2/C1=C1\\CCc2cc(O)ccc21", "inhibition / %": 58.9}
{"Smiles string": "CNC(=O)c1cncc(/C=C/c2ccccc2C)c1", "inhibition / %": 15.5}
{"Smiles string": "CS(=O)(=O)Nc1ccc(-c2ccc3c(NC(=O)C4CC4)n[nH]c3c2)cc1", "inhibition / %": 20.9}
{"Smiles string": "NS(=O)(=O)c1ccc(N/N=C2\\C(=O)Nc3ccc(C(=O)NCc4ccncc4)cc32)cc1", "inhibition / %": 39.4}

###

# Subject of test: Protein kinase C iota type (Homo sapiens) (UniProt P41743)
# Sequence (P41743 whole entry): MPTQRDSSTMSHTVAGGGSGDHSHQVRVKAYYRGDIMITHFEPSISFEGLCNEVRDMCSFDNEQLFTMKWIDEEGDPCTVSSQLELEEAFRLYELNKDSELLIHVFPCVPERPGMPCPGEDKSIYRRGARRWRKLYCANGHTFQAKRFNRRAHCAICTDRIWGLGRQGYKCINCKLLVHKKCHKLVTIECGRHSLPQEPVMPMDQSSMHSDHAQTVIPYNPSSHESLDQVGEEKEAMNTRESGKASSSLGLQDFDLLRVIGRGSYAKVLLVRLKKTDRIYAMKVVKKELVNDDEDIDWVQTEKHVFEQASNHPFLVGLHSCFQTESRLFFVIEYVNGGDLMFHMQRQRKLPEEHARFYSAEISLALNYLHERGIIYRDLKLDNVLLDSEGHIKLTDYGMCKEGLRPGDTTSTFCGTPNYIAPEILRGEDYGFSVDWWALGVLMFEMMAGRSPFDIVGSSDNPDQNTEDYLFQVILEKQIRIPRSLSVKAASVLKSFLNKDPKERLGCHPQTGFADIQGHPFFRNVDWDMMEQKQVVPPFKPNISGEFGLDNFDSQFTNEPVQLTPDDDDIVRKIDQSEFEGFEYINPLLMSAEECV
# Measurement setup: at 1 µM
Some molecules, each annotated with its measured inhibition.

{"Smiles string": "COc1ccc2ncn(-c3cc(O[C@H](C)c4ccccc4C(F)(F)F)c(C(N)=O)s3)c2c1", "inhibition": "-0.45%"}
{"Smiles string": "Fc1cccc(COc2ccc(Nc3ncncc3C#Cc3ccccc3)cc2Cl)c1", "inhibition": "0.75%"}
{"Smiles string": "CCOc1ccc2c(-c3ccnc(Nc4cc(OC)cc(C(F)(F)F)c4)n3)cnn2n1", "inhibition": "-0.03%"}
{"Smiles string": "CC1(C)CC(n2cnc(-c3ccc(F)cc3)c2-c2ccnc(N)n2)CC(C)(C)N1", "inhibition": "0.2%"}
{"Smiles string": "OCCCNc1nccc(-c2c(-c3ccc(F)cc3)nn3cc(C(F)(F)F)ccc23)n1", "inhibition": "4.1%"}

###

# Subject of test: Tyrosine-protein kinase receptor TYRO3 (Homo sapiens) (UniProt Q06418)
# Sequence (Q06418 whole entry): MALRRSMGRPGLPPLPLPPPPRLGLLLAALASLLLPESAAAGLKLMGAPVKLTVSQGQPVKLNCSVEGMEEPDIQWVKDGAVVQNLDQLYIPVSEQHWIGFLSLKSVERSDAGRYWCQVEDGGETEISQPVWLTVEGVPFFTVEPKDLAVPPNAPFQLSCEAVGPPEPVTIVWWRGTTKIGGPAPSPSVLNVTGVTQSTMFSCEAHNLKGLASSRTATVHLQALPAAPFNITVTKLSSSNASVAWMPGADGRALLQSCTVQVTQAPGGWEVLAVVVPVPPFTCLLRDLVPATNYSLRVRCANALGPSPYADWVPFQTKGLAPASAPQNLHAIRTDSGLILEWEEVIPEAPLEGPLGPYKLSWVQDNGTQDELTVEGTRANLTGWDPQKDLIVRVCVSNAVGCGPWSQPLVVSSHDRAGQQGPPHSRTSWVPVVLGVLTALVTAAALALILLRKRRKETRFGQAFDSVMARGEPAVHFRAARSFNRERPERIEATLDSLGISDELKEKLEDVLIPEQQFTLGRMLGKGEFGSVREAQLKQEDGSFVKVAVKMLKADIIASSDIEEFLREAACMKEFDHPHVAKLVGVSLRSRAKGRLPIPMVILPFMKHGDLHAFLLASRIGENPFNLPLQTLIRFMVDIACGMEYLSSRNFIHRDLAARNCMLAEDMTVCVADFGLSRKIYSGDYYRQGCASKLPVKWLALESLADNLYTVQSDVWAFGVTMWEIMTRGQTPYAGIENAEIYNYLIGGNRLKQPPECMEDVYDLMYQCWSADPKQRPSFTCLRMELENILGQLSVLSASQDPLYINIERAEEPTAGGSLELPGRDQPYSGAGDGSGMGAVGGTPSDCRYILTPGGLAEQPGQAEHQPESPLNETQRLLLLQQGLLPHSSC
# Measurement setup: at 0.1 µM
Label YES for high-side inhibition (at or above 4%) and NO for low-side inhibition (below it).

{"Smiles string": "CNC(=O)c1sc(-n2cnc3cc(OC)c(OC)cc32)cc1OCc1ccccc1C(F)(F)F", "Assigned category": "NO"}
{"Smiles string": "COc1ccc(-c2nn3ncccc3c2-c2ccnc(Nc3ccc(F)c(F)c3)n2)cc1", "Assigned category": "NO"}
{"Smiles string": "CC(C)c1ccc(-c2cc(-c3c[nH]nc3-c3ccccn3)ccn2)cc1", "Assigned category": "NO"}
{"Smiles string": "O=C(O[C@H]1CN[C@H](C#Cc2cc3ncnc(Nc4ccc(OCc5cccc(F)c5)c(Cl)c4)c3s2)C1)N1CCOCC1", "Assigned category": "NO"}
{"Smiles string": "NS(=O)(=O)c1cccc(N/C=C2\\C(=O)Nc3ccccc32)c1", "Assigned category": "NO"}
{"Smiles string": "COC(=O)Nc1nc2ccc(Oc3ccc(NC(=O)Nc4cc(C(F)(F)F)ccc4F)cc3)cc2s1", "Assigned category": "YES"}
{"Smiles string": "COc1ccccc1-c1cc(/C=C2\\C(=O)Nc3ncc(Br)cc32)cc(Br)c1O", "Assigned category": "YES"}

###

Some compounds, each annotated with its measured inhibition.
# Subject of test: Cyclin-dependent kinase 1 (Homo sapiens) (UniProt P06493)
# Sequence (P06493 whole entry, looked up): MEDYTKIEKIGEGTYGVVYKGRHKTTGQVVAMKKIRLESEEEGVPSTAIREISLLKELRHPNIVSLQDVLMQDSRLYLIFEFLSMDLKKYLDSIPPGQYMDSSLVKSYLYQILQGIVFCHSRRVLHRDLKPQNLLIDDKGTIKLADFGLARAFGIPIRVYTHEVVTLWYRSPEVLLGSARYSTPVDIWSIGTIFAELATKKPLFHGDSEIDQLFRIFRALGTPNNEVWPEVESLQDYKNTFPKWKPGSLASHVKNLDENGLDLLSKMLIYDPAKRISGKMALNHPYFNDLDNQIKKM
# Measurement setup: at 1 µM

{"Compound": "N#Cc1cccc(Nc2ncc(-c3ccccc3)o2)c1", "inhibition [%]": 17.1}
{"Compound": "COC(=O)Nc1nc2cc(Oc3ccc(NC(=O)Nc4ccccc4)cc3)ccc2[nH]1", "inhibition [%]": 1.72}
{"Compound": "NS(=O)(=O)c1ccc(N/N=C2\\C(=O)Nc3ccc(C(=O)NCc4ccncc4)cc32)cc1", "inhibition [%]": 71.3}
{"Compound": "CC(C)c1ccc(-c2cc(-c3c[nH]nc3-c3ccccn3)ccn2)cc1", "inhibition [%]": 2.01}
{"Compound": "O=C1Nc2ccccc2/C1=C1\\CCc2cc(O)ccc21", "inhibition [%]": 3.82}
{"Compound": "CC1=C(C(=O)Nc2ccc3[nH]nc(C)c3c2)C(c2ccc(C(F)(F)F)cc2)CC(=O)N1 (stereo not given)", "inhibition [%]": 6.87}
{"Compound": "NC(=O)c1ccc2c(-c3ccnc(NCCCO)n3)c(-c3ccc(F)cc3)nn2c1", "inhibition [%]": 1.54}
{"Compound": "O=C(O[C@H]1CN[C@H](C#Cc2cc3ncnc(Nc4ccc5c(ccn5Cc5cc(F)ccc5F)c4)c3s2)C1)N1CCOCC1", "inhibition [%]": 1.97}
{"Compound": "CC1(C)CC(n2cnc(-c3ccc(F)cc3)c2-c2ccnc(N)n2)CC(C)(C)N1", "inhibition [%]": 0.21}
{"Compound": "NS(=O)(=O)c1cccc(N/C=C2\\C(=O)Nc3ccccc32)c1", "inhibition [%]": 7.45}
{"Compound": "c1cnn2ncc(-c3ccnc(NCCCN4CCOCC4)n3)c2c1", "inhibition [%]": 13.9}
{"Compound": "O=C(O[C@H]1CN[C@H](C#Cc2cc3ncnc(Nc4ccc(OCc5cccc(F)c5)c(Cl)c4)c3s2)C1)N1CCOCC1", "inhibition [%]": 1.18}
{"Compound": "N#Cc1ccc2c(-c3ccnc(NC4CC4)n3)c(-c3ccc(F)cc3)nn2c1", "inhibition [%]": -0.22}
{"Compound": "Cc1cc(O)cc(C)c1/C=C/c1cncc(C(=O)OC(C)(C)C)c1", "inhibition [%]": 3.26}
{"Compound": "CN(c1ccc(NC(=O)NCCN2CCOCC2)cc1)c1ccnc(Nc2ccc(CS(C)(=O)=O)cc2)n1", "inhibition [%]": 2.55}

###

# Subject of test: Tyrosine-protein kinase Fes/Fps (Homo sapiens) (UniProt P07332)
# Sequence (P07332 whole entry): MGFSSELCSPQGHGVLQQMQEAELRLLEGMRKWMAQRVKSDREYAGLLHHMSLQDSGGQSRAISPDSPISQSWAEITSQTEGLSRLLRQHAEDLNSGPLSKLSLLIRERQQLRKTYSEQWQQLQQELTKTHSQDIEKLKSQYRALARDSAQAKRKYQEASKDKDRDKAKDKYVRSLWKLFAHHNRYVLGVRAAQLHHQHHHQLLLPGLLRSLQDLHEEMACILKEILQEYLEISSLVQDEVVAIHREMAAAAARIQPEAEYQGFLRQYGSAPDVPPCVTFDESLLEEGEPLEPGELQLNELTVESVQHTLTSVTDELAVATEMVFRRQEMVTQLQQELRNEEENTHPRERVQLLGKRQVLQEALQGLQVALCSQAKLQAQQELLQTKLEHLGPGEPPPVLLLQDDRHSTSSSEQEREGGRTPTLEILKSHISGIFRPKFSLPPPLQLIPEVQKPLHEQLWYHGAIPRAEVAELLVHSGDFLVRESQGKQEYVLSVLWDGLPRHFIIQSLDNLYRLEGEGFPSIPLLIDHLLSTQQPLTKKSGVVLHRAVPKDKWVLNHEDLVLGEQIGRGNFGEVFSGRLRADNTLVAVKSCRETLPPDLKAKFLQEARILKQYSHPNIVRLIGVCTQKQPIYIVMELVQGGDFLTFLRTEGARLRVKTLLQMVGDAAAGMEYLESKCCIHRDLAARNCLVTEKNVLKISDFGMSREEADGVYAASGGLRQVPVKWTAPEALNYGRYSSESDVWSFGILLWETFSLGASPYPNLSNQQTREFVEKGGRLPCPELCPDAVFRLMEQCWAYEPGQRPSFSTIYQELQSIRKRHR
# Measurement setup: at 0.1 µM
# Description: GSK_PKIS: FES mean inhibition at 0.1 uM [Nanosyn]

{"Smiles string": "Fc1cccc(COc2ccc(Nc3ncncc3C#Cc3ccccc3)cc2Cl)c1", "Unit spec": "%", "inhibition": 2.55}
{"Smiles string": "COc1cc(N2CCN(C(C)C)CC2)ccc1Nc1nc(Nc2cccc3ncccc23)c2cc[nH]c2n1", "Unit spec": "%", "inhibition": 0.44}
{"Smiles string": "COc1c(C(N)=O)cc(-c2ccc(Cl)cc2)cc1-c1ccc(S(N)(=O)=O)cc1", "Unit spec": "%", "inhibition": 3.78}
